Test system: gene editing with Cas9
measurement_description: Screen of 322 new SSAP proteins, gene editing activity with Cas9 (Table 5)
Type: cell-based
condition_description: normalized
readout: Cas9 with SSAP activity (normalized)
Give a plain numeric answer without units written out.

// SSAP_318: SEQ ID NO: 487; Shewanella morhuae (protein, listed as Shewanella morhuae) QTAQVKLSVPHQQVYQDNFNYLSSQVVGHLVDLNEEIGYLNQIVFNSLSTASPLDVAAPWSVYGLLLNVCRLGLSLNPEKKLAYVMPSWSETGEIIMKLYPGYRGEIAIASNFNVIKNANAVLVYENDHFRIQAATGEIEHFVTSLSIDPRVRGACSGGYCRSVLMDNTIQISYLSIEEMNAIAQNQIEANMGNTPWNSIWRTEMNRVALYRRAAKDWRQLIKATPEIQSALSDTEY : Cas9 with SSAP activity (normalized) value = 0.060

// SSAP_80: SEQ ID NO: 249 (protein) GHLVSKTEQDYIKQHYAKGATDQEFEHFIGVCRARGLNPAANQIYFVKYRSKDGPAKPAFILSIDSLRLIAHRTGDYAGCSEPIFTDGGKACTVTVRRNLKSGETGNFSGMAFYDEQVQQKNGRPTSFWQSKPRTMLEKCAEAKALRKAFPQDLGQFYIREEMPPQYDEPIQVHKPKALEEPRFSKSDLSRRKGLNRKLSALGVDPSRFDEVATFLDGTPDRELGQKLKLWLKEAGYGVNQ : Cas9 with SSAP activity (normalized) value = −0.629

// SSAP_314: SEQ ID NO: 483; Ferrimonas kyonanensis (protein, listed as Ferrimonas kyonanensis) NQMINEPDFVTALKDSRETYIDLTQNGGFNLNYGLEAGWAHQQIEASRYQNLDLTCSEPGSIMQAFCEAARLGLSFDPRKKHIYLMGQKDVQSGRTITILYVGYKGMIALACRTGFMIGGHADLVFEEDTFTYRSGTQLPVHEHDGRPNHERGRLKCGYVVAHQPGGMVKTLLVPKEVLLEAASNGLNAGGSNNTWCGPYMEMMYQKTCWRYAFNAWYSELEAVGMTQAQLESATTAVSYQ : Cas9 with SSAP activity (normalized) value = 0.106

// SSAP_61: SEQ ID NO: 230 (protein) ATSLKRAVTGDGKPATVQQLLTNPKIKSQIALALPQHLTPERLTRIVLTEIRRTPALAKCKPESLLAAVMQCAQLGLEPGGSLGHAWLMPFKNEVQFIIGYRGMIDLARRSGQVLSIEARGVYESDTFHVSFGLEPDLTHQPDWDPADRGKLAFVYAVARLKDGGFQFDVMSRAEVEKIRAQSPAGKSGPWVTHFEEMAKKTVIRRLFKYLPVSVEMARAVGLDEAAERGEQSDAIDADCVIESEEEATPEEKGDSAA : Cas9 with SSAP activity (normalized) value = −0.539
